// Serine/threonine-protein kinase VRK3 (Homo sapiens) ΔTm records
Give just the number in °C; leave the unit off.

# get_value(readout='ΔTm', item= "O=C1Cc2c([nH]c3ccc([N+](=O)[O-])cc23)-c2ccccc2N1" )
0

Let us now turn to "N#C/C(=C\c1ccc(O)c(O)c1)C(=O)Nc1ccccc1"
0

Thanks! And "CC(C)N(CCO)c1nc(Nc2cccc(Cl)c2)c2ncn(C(C)C)c2n1" ?
0.4

Repeat with "Nc1nccc(-c2c(-c3ccc(F)cc3)ncn2C2CCNCC2)n1"
0

// same read-out, input: "Cc1nc2sccn2c(=O)c1CCN1CCC(=C(c2ccccc2)c2ccc(F)cc2)CC1"
0

Try this compound too: "O=C1Nc2ccc(I)cc2/C1=C1/Nc2ccccc2/C1=N\O"
0.4

What do you have for "Nc1cc2ncnc(Nc3cccc(Br)c3)c2cc1N" ?
0

* * *

The following molecules each carry a recorded ΔTm for Mitogen-activated protein kinase 3 (Homo sapiens).
Reply numerically in °C, unit not repeated.

Observed ΔTm on Mitogen-activated protein kinase 3 (Homo sapiens) for "NCCNc1ncc(C(N)=O)c(Nc2cccc(C(F)(F)F)c2)n1" , please.
Sequence (P27361 whole entry): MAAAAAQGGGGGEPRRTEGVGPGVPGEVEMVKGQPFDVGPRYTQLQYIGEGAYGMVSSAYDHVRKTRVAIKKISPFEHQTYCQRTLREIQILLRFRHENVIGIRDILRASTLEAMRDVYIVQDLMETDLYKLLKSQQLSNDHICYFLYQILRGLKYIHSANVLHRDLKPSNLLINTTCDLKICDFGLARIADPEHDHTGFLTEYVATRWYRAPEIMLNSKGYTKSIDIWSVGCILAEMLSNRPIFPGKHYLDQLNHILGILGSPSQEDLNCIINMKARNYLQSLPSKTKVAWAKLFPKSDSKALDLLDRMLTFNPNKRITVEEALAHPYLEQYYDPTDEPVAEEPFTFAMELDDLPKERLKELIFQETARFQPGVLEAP
0.9

Follow-up entry: "O=Nc1c(-c2c(O)[nH]c3ccccc23)[nH]c2ccccc12"
0.9

How about "O=c1c2ccccc2[nH]c(=S)n1CCN1CCC(=C(c2ccc(F)cc2)c2ccc(F)cc2)CC1" ?
0.2

Now consider "Cc1ccc(NC(=O)c2cccc(N(C)C)c2)cc1NC(=O)c1ccc(O)cc1" .
0.2

Check "COc1ccc(CNc2nc(N(CCO)CCO)nc3c2ncn3C(C)C)cc1" too.
0.2

What do you have for "O=C(Nc1cccc(Nc2nccc(Nc3cccc(C(F)(F)F)c3)n2)c1)C1CC1" ?
0.9

* * *

# study system: Mitogen-activated protein kinase 6 (Homo sapiens)
The recorded ΔTm of each item maps onto one of these classes: bottom = under -0.1 °C, middle = from -0.1 °C up to 0.6 °C, top = 0.6 °C and over

// return the class label for "O=C1C(Cl)=C(N2C(=O)CCC2=O)C(=O)c2ccccc21"
bottom

Another compound to look at: "Nc1n[nH]c2nc3ccccc3nc12"
middle

Subsequent entry: O=C1c2ccccc2-[n+]2ccc3c([nH]c4ccccc43)c21 [FASCAPLYSIN CHLORIDE]
bottom

Same again, this time with "N#C/C(=C(/N)Sc1ccc(N)cc1)c1ccccc1C(F)(F)F"
middle

For "COc1ccc(CNc2nc(N(CCO)CCO)nc3c2ncn3C(C)C)cc1" then?
bottom

Now the same for "N#CC(C#N)=Cc1ccc(O)c(O)c1"
middle

// query: "CC(C)N(CCO)c1nc(Nc2cccc(Cl)c2)c2ncn(C(C)C)c2n1"
middle

Moving on to the next compound: "N#C/C(=C\c1ccc(O)c(O)c1)C(=O)Nc1ccccc1"
middle

What would you report for "Cc1nc(N)sc1-c1ccnc(Nc2cccc([N+](=O)[O-])c2)n1" ?
top

And the next one, "Nc1n[nH]c2nnc(-c3c(-c4ccccc4)nn4ccccc34)cc12" ?
top

Request: C[S+]([O-])c1ccc(CSc2nc(-c3ccc(F)cc3)c(-c3ccncc3)[nH]2)cc1 (configuration not stated)
bottom

Request: "CN1CCc2[nH]c(=S)c(C#N)c(-c3cccs3)c2C1"
top

Please answer likewise for "O=C(O)c1cc(NCc2cc(O)ccc2O)ccc1O"
bottom

Continue with "Nc1cccc(-c2cc3c(Oc4cccc(O)c4)ncnc3[nH]2)c1"
top

Can you check "O=C1Nc2ccc(S(=O)(=O)O)cc2/C1=C1/Nc2ccccc2/C1=N\O" next?
top

Queued: "O=c1c(-c2ccc(F)cc2)c(-c2ccncc2)[nH]n1-c1ccc(Cl)cc1"
top

Lookup "COC1=C2C[C@@H](C)C[C@H](OC)[C@H](O)[C@@H](C)/C=C(\C)[C@H](OC(N)=O)[C@@H](OC)/C=C\C=C(/C)C(=O)NC(=CC1=O)C2=O"
middle

Proceed to "COc1ccc(COc2ccc(Cc3cnc(N)nc3N)cc2OC)cc1"
top

* * *

Give ΔTm for every item shown.
# study system: Calcium/calmodulin-dependent protein kinase type II subunit alpha (Homo sapiens)
Field format: number, assumed °C, no unit text.

What is its ΔTm for Calcium/calmodulin-dependent protein kinase type II subunit alpha (Homo sapiens)? Entry: O=C1NC(=O)c2c1c1c3ccccc3[nH]c1n1cncc21 [ISOGRANULATIMIDE]
3.6

Try this compound too: "Brc1c(Br)c(Br)c2[nH]nnc2c1Br"
1.2

Thanks! And "Ic1cccc(CSc2nnc(-c3ccncc3)o2)c1" ?
-0.6

Lookup "O=C(O)c1cc(N(Cc2ccccc2O)Cc2cc(O)ccc2O)ccc1O"
1.3

Field entry: "CN(C)C[C@@H]1CCn2cc(c3ccccc32)C2=C(C(=O)NC2=O)c2cn(c3ccccc23)CCO1"
3.1

What would you report for COC(=O)[C@]1(O)C[C@@H]2O[C@@]1(C)n1c3ccccc3c3c4c(c5c6ccccc6n2c5c31)C(=O)NC4 (single isomer, unassigned) ?
3.2

Now consider "CC(C)(C)c1nc2c3ccc(F)cc3c3c(=O)[nH]ccc3c2[nH]1" .
2.6

Next compound: "O=C(O)Cc1ccc(O)c([N+](=O)[O-])c1"
1.4

Entry "COc1cc2ncnc(Nc3ccc(NC(=O)c4ccccc4)cc3)c2cc1OC" please
0

Queued: "O=C(Nc1cccc(Nc2cc(Nc3cccc(C(F)(F)F)c3)ncn2)c1)C1CC1"
1.8

Next record, please: "C=CNC#N"
0.7

Let us now turn to "NCCNc1ncc(C(N)=O)c(Nc2cccc(C(F)(F)F)c2)n1"
-0.3

Queued: "O=C1Nc2ccc(I)cc2/C1=C\c1cc(Br)c(O)c(Br)c1"
-0.8

Also check "COc1ccc(CNC(=O)Nc2ncc([N+](=O)[O-])s2)cc1"
-0.1

Please give the result for "CCCNC(=O)Nc1ccc(Oc2ncnc3cc(OC)c(OC)cc23)cc1Cl" too.
0.8

One more compound: "O=c1ccc2ccc(O)c(O)c2o1"
0.4

Same question for "O=C1Cc2c([nH]c3ccc(Br)cc23)-c2ccccc2N1" please.
0

What do you get for "Cc1cc(C=C2C(=O)C=CC2=O)cc(C)c1O" ?
1.2

What do you have for "O=c1c(-c2ccc(O)cc2)coc2cc(O)cc(O)c12" ?
0.8

Now consider "COc1ccc(Cl)cc1NC(=O)Nc1cc(C)nc2ccccc12" and answer again.
-0.5

Thanks! And "CCN(CC)CCNC(=O)c1c(C)[nH]c(/C=C2\C(=O)Nc3ccc(Cl)cc32)c1C" ?
5.7

Follow-up entry: "O=c1sn(Cc2ccccc2)c(=S)n1Cc1ccccc1"
0.3

Continue with "c1ccc(-c2n[nH]c3c2oc2ccccc23)cc1"
0.3

Now try "CN(C)S(=O)(=O)c1ccc2c(c1)/C(=C/c1cc3c([nH]1)CCCC3)C(=O)N2" .
3

Moving on to "CCOC(=O)c1c(C)[nH]c(/C=C2\C(=O)Nc3ccccc32)c1C"
-0.6

What would you report for "Nc1n[nH]c2nnc(-c3c(-c4ccccc4)nn4ccccc34)cc12" ?
-0.4

Moving on to "O=C(O)c1cc(NCc2cc(O)ccc2O)ccc1O"
0.4

* * *

# study system: Mitogen-activated protein kinase 11 (Homo sapiens, UniProt Q15759)
# Sequence (Q15759 whole entry): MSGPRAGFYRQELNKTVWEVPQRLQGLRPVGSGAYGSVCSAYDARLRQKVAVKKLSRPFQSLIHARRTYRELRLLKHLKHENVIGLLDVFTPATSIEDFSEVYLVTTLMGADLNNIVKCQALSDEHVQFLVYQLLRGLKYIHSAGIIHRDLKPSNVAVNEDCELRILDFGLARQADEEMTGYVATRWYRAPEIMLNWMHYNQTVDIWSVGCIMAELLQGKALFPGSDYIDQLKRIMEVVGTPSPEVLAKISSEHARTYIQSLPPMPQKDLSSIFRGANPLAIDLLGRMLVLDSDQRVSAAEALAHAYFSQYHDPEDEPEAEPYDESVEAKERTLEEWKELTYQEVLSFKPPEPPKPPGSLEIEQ
ΔTm of -0.1 °C or higher: class 1. Under -0.1 °C: class 0.

Given the entry "N#C/C(=C\c1ccc(O)c(O)c1)C(=O)NCc1ccccc1" , answer whether its ΔTm meets or surpasses -0.1 °C.
class 1

Next compound: "COc1cc2ncnc(Nc3ccc(F)c(Cl)c3)c2cc1OCCCN1CCOCC1"
class 1

Lookup "CC(C)(C)n1nc(-c2cccc3ccccc23)c2c(N)ncnc21"
class 1

Thanks! And "CCOc1ccc(/C=C2/SC(=O)N(CCN)C2=O)cc1" ?
class 1

Now the compound "CCN(CC)CCNC(=O)c1c(C)[nH]c(/C=C2\C(=O)Nc3ccc(Cl)cc32)c1C"
class 0

Next up: "O=C(Nc1cccc(Nc2nccc(Nc3cccc(C(F)(F)F)c3)n2)c1)C1CC1"
class 1

Same question, "O=c1sn(Cc2ccccc2)c(=S)n1Cc1ccccc1" this time
class 0

Now the compound "COc1cc2ncnc(Nc3cccc(Br)c3)c2cc1OC"
class 1

Consider next the compound "C[C@@H](N)[C@H]1CC[C@H](C(=O)Nc2ccncc2)CC1" in the same way.
class 1

And then "Cc1nc2sccn2c(=O)c1CCN1CCC(=C(c2ccccc2)c2ccc(F)cc2)CC1" , what is it?
class 0

Quick one: "Nc1cc2ncnc(Nc3cccc(Br)c3)c2cc1N"
class 1

Queued: "Cc1[nH]c(/C=C2\C(=O)Nc3ccc(S(=O)(=O)N(C)c4cccc(Cl)c4)cc32)c(C)c1C(=O)N1CCN(C)CC1"
class 1

Further, for "N=C(N)NCCNS(=O)(=O)c1cccc2cnccc12" ?
class 0

Next up: "O=C1Nc2cc(Br)ccc2/C1=C1/Nc2ccccc2/C1=N\O"
class 0

Same for "COc1cccc(-c2cc(=O)c3ccccc3o2)c1N"
class 1

// next record "Oc1cccc(-c2nc(N3CCOCC3)c3oc4ncccc4c3n2)c1"
class 1

What do you have for "Cc1ccc(NC(=O)c2ccc(CN3CCN(C)CC3)cc2)cc1Nc1nccc(-c2cccnc2)n1" ?
class 0

Record: "CN(C)c1ncnc2nc[nH]c12"
class 1

For CN(C)CC1CCn2c(c(C3=C(c4c[nH]c5ccccc45)C(=O)NC3=O)c3ccccc32)C1 (stereo not given) then?
class 0

Field entry: "Cc1nc(Nc2ncc(C(=O)Nc3c(C)cccc3Cl)s2)cc(N2CCN(CCO)CC2)n1"
class 1

Would you mind doing "Nc1cccc(-c2cc3c(Oc4cccc(O)c4)ncnc3[nH]2)c1" as well?
class 1

Would you kindly repeat that for "CC(C)n1cnc2c(NCc3ccccc3)nc(NCCCO)nc21" ?
class 1

What about "Nc1n[nH]c2nnc(-c3c(-c4ccccc4)nn4ccccc34)cc12" ?
class 1

Try the compound "COc1cc(OC)c(/C=C2\C(=O)Nc3ccccc32)c(OC)c1"
class 1

And then "O=C1NC(=O)C(c2c[nH]c3ccccc23)=C1c1c[nH]c2ccccc12" , what is it?
class 1

Note, next up: "CCCNC(=O)Nc1ccc(Oc2ncnc3cc(OC)c(OC)cc23)cc1Cl"
class 0

Please give the result for "OC[C@H]1O[C@@H](n2cnc3cc(Cl)c(Cl)cc32)[C@H](O)[C@@H]1O" too.
class 1

Continue with O=C1NC(=O)c2c1c1c3ccccc3[nH]c1n1cncc21 [ISOGRANULATIMIDE]
class 1

Moving on to the next compound: "CC(=O)O/N=C1/C(=C2/C(=O)Nc3cc(Br)ccc32)Nc2ccccc21"
class 1

What would you report for "O=[N+]([O-])c1ccc(-c2nc(-c3ccc(F)cc3)c(-c3ccncc3)[nH]2)cc1" ?
class 1

Again, but for "NCCNS(=O)(=O)c1cccc2c(Cl)cccc12"
class 0
